Ref: patent US20160002343A1

# assay_system: Repulsive guidance molecule A (Mus musculus (Mouse)) (UniProt Q6PCX7)
# Sequence (Q6PCX7 48-427 limits assumed): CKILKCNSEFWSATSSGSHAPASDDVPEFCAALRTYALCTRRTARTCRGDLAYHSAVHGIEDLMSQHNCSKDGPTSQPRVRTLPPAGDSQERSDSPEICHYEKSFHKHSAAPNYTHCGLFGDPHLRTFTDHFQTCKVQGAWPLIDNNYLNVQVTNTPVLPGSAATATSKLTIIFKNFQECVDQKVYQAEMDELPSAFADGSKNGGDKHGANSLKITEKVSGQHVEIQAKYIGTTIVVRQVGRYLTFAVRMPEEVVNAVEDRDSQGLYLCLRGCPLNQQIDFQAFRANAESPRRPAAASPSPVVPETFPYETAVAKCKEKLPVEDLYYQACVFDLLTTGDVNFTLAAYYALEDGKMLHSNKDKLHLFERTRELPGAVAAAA
# assay_text: cell-based or functional assay
reported_endpoint: BMP Assay IC50 (nM)
Number only, in nM; omit the unit.

* TfR(AB405)-LL-RGMA(AE12-1) (bispecific antibody, part only; not given: Outer anti-TfR domains, linkers, constant regions, not shown: a dimerising Fc or GST) heavy, part: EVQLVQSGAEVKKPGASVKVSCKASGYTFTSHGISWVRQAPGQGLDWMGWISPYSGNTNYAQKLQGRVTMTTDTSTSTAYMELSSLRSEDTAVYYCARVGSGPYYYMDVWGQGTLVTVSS light, part: QSALTQPRSVSGSPGQSVTISCTGTSSSVGDSIYVSWYQQHPGKAPKLMLYDVTKRPSGVPDRFSGSKSGNTASLTISGLQAEDEADYYCCSYAGTDTLFGGGTKVTVLG | 0.701
* RGMA(AE12-1)-GS-TfR(AB402) (bispecific antibody, part only; not given: anti-TfR domains, constants, not shown: a dimerising Fc or GST) heavy, part: EVQLVQSGAEVKKPGASVKVSCKASGYTFTSHGISWVRQAPGQGLDWMGWISPYSGNTNYAQKLQGRVTMTTDTSTSTAYMELSSLRSEDTAVYYCARVGSGPYYYMDVWGQGTLVTVSSGGGGSGGGGS light, part: QSALTQPRSVSGSPGQSVTISCTGTSSSVGDSIYVSWYQQHPGKAPKLMLYDVTKRPSGVPDRFSGSKSGNTASLTISGLQAEDEADYYCCSYAGTDTLFGGGTKVTVLGGGSGGGGSG | 0.014

Field request: BMP Assay IC50 | item: TfR(AB405)-GS-RGMA(AE12-1) (bispecific antibody, part only; not given: anti-TfR domains, constants, not shown: a dimerising Fc or GST) heavy, part: GGGGSGGGGSEVQLVQSGAEVKKPGASVKVSCKASGYTFTSHGISWVRQAPGQGLDWMGWISPYSGNTNYAQKLQGRVTMTTDTSTSTAYMELSSLRSEDTAVYYCARVGSGPYYYMDVWGQGTLVTVSS light, part: GGSGGGGSGQSALTQPRSVSGSPGQSVTISCTGTSSSVGDSIYVSWYQQHPGKAPKLMLYDVTKRPSGVPDRFSGSKSGNTASLTISGLQAEDEADYYCCSYAGTDTLFGGGTKVTVLG
3.12

Field request: BMP Assay IC50 | item: RGMA(AE12-1)-SS-TfR(AB402) (bispecific antibody, part only; not given: Inner anti-TfR domains, linkers, constant regions, not shown: a dimerising Fc or GST) heavy, part: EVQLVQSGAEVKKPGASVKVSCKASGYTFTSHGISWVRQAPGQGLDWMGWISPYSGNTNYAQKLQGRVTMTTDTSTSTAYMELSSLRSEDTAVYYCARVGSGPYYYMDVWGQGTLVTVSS light, part: QSALTQPRSVSGSPGQSVTISCTGTSSSVGDSIYVSWYQQHPGKAPKLMLYDVTKRPSGVPDRFSGSKSGNTASLTISGLQAEDEADYYCCSYAGTDTLFGGGTKVTVLG
0.436
